- System: NCI/ADR-RES ovarian
- Assay info: NCI-60 one-dose screen, 48 h
- Assay conditions: 10 µM unless noted
The panel holds about 83,000 compounds, 20% with a hit somewhere; the sample as a whole holds those more often. Active and inactive are the calls of the source. How the source made its calls: active means growth percent below 10; inactive means the rest.
Pick one: 1 (active), 0 (inactive)

Check out these entries, answers already filled in.
| Compound | Label value |
| --- | --- |
| C[n+]1c(/C=C\C=C\N2CCCCC2)sc2ccccc21 | 0 |
| CCc1ccccc1C(=O)N(CC)CC | 0 |
| COc1cc(C(=O)O)c(O)c(C(C)(C)C)c1 | 0 |
| CCC(=O)C1C(=O)c2ccccc2C1=O | 0 |
| CCOC(=O)CNC(=O)Sc1ccc(C(C)(C)C)cc1 | 0 |
| NC(=S)c1c(N)n(C2OC(CO)C(O)C2O)c2ncnc(N)c12 (configuration not stated) | 1 |

Now consider the entry below.
Inquiry: In this assay, the call recorded for ClCC(Cl)[C@@H]1CC2C=CC1C2 (some centres not stated) was what?
Reply text: 0

====

- Tested on: U251 CNS
- Assay info: NCI-60 one-dose screen, 48 h
- Assay conditions: 10 µM unless noted
About 83,000 compounds went through this panel and 20% of them were active in at least one assay; those are over-represented in the sample as a whole. Active and inactive are the calls of the source. The calls were made as follows: active = growth percent below 10; inactive = the rest.
Pick one: TRUE = active, FALSE = inactive

Inquiry: In this assay, the call recorded for CC(=O)N(C(C)=O)c1ccc(C)cc1 was what?
Reply text: FALSE

Inquiry: In this assay, the call recorded for O=C(CCl)Oc1ccc([N+](=O)[O-])cc1 was what?
Reply text: FALSE

Inquiry: In this assay, the call recorded for O=C(O)Cc1ccccn1 was what?
Reply text: FALSE

Inquiry: In this assay, the call recorded for CC1(C)OC2C(CO)OC(n3ccc(=O)[nH]c3=O)C2O1 (stereo not given) was what?
Reply text: FALSE

Inquiry: In this assay, the call recorded for O=C(c1ccccc1O)N1CCCC1 was what?
Reply text: FALSE

Inquiry: In this assay, the call recorded for C=COC(=O)CCOCC(CC)CCCC (stereo not given) was what?
Reply text: FALSE

Inquiry: In this assay, the call recorded for CC(=O)/C(C)=N\OC(=O)Nc1ccccc1 was what?
Reply text: FALSE

Inquiry: In this assay, the call recorded for CCCCCC#CC(=O)O was what?
Reply text: FALSE

Inquiry: In this assay, the call recorded for O=C(Nc1ccccc1)c1ccco1 was what?
Reply text: FALSE

Inquiry: In this assay, the call recorded for Cc1ccc(Cc2ccc(C)cc2)cc1 was what?
Reply text: FALSE

Inquiry: In this assay, the call recorded for CC(=O)NC(CCC(=O)c1ccccc1)C(=O)O (stereo not given) was what?
Reply text: FALSE

====

- System: UO-31 renal
- Assay info: NCI-60 one-dose screen, 48 h (100 = growth as untreated, 0 = no growth, -100 = all killed)
- Assay conditions: 10 µM unless noted
Compounds without any hit were thinned out: in the full panel of roughly 83,000, 20% have a hit.
Label 0 (no) if growth falls below 90%; label 1 (yes) in every other case.

Check out these entries, answers already filled in.
| Compound | Label value |
| --- | --- |
| O=Cc1c(O)c2ccccc2[nH]c1=O | 0 (no) |
| COc1ccc(/C=C\C(=O)/C=C/c2ccc(OC)cc2)cc1 | 0 (no) |
| CCNc1ncnc2[nH]ncc12 | 1 (yes) |

Inquiry: Does the reported growth for C/C(=N\N=C(/C)c1cccc([N+](=O)[O-])c1)c1cccc([N+](=O)[O-])c1 fall at or above the 90% mark?
Reply text: 1 (yes)

Inquiry: Does the reported growth for CCCCCCCCCCCCCCCCCC(=O)NCCNC(=O)CCCCCCCCCCCCCCCCC fall at or above the 90% mark?
Reply text: 0 (no)

Inquiry: Does the reported growth for CCOC(=O)/C(O)=C(\C=N\C(=S)Nc1ccc(Cl)c(Cl)c1)C(=O)OCC fall at or above the 90% mark?
Reply text: 0 (no)

Inquiry: Does the reported growth for COc1cc(OC)c(NC(=O)C(Sc2nc(C)cc(C)c2C#N)c2ccccc2)cc1Cl (centres undefined) fall at or above the 90% mark?
Reply text: 1 (yes)

Inquiry: Does the reported growth for COc1ccc(C(=O)C(=O)c2ccccc2)cc1 fall at or above the 90% mark?
Reply text: 1 (yes)

Inquiry: Does the reported growth for Cc1cc2nc(C)c(C)nc2cc1C fall at or above the 90% mark?
Reply text: 0 (no)

Inquiry: Does the reported growth for COc1c(CNC(=O)CCl)cc2[nH]c(C)cc2c1CNC(=O)CCl fall at or above the 90% mark?
Reply text: 0 (no)

Inquiry: Does the reported growth for Cc1cccc2ccccc12 fall at or above the 90% mark?
Reply text: 0 (no)

Inquiry: Does the reported growth for C=C(c1ccc(N(C)C)cc1)c1ccc(N(C)C)cc1 fall at or above the 90% mark?
Reply text: 0 (no)

Inquiry: Does the reported growth for COC(=O)Cc1cc(COC(C)=O)ccc1C fall at or above the 90% mark?
Reply text: 0 (no)

Inquiry: Does the reported growth for O=C(Nc1cccc(Cl)c1)c1ccc(Cl)cc1Cl fall at or above the 90% mark?
Reply text: 0 (no)

Inquiry: Does the reported growth for CCOC(=O)c1ccc(NC(=O)Nc2nccs2)cc1 fall at or above the 90% mark?
Reply text: 0 (no)

====

# key: entry, value: growth
- Tested on: SN12C renal
- Assay info: NCI-60 one-dose screen, 48 h (100 = growth as untreated, 0 = no growth, -100 = all killed)
- Assay conditions: 10 µM unless noted
This is part of a sample that, as a whole, favours compounds with a hit. Of some 83,000 tested, about 20% had one in any assay.
Number only, in %; omit the unit.

Example results:
| Compound | Study system | growth [%] |
| --- | --- | --- |
| O=c1n(CC2CO2)c(=O)n(CC2CO2)n1CC1CO1 (centres undefined) | SN12C renal | 69.7 |
| O=C(O)Cc1ccc(Cl)cc1 | SN12C renal | 122 |
| C=CC1=NC(C)(C)CC(C)O1 (centres undefined) | SN12C renal | 99.2 |

Inquiry: // fetch SN12C renal growth for CCC(=O)Oc1ccc2ccccc2c1
Reply text: 91

Inquiry: // fetch SN12C renal growth for S=c1nc2[nH]c3ccccc3c2n[nH]1
Reply text: 92.2

Inquiry: // fetch SN12C renal growth for COC(CCCl)c1ccc(Cl)cc1 (centres undefined)
Reply text: 106

====

- Tested on: UO-31 renal
- Assay info: NCI-60 one-dose screen, 48 h (100 = growth as untreated, 0 = no growth, -100 = all killed)
- Assay conditions: 10 µM unless noted
This is part of a sample that, as a whole, favours compounds with a hit. Of some 83,000 tested, about 20% had one in any assay.
Endpoint: growth (%)
Number only, in %; omit the unit.

Example results:
| Compound | growth, % |
| --- | --- |
| O=CNCCc1ccccc1 | 87.8 |
| CCOC(=O)c1ccc(C(C)(C)C)cc1 | 89.8 |
| CCN(C(=O)Nc1ccccc1Cl)c1ccccc1 | 91.4 |
| Cc1cccc(C)c1NC(=S)/N=C\c1c(O)[nH]c(=O)[nH]c1=O | 89.5 |
| OCC1CCC(O)C(CO)N1 (stereo not given) | 90.8 |
| Cc1ccc(C)c(CN(C)C)c1O | 90.1 |

Inquiry: // fetch UO-31 renal growth for COC(=O)C1(CC(C)=O)NC(=S)NC(=O)C1C#N (stereo not given)
Reply text: 92.2

Inquiry: // fetch UO-31 renal growth for CC1CC2C3CCC4=CC(=O)CCC4(C)C3CCC2(C)C1(O)C(=O)CO (stereo not given)
Reply text: 92.2

Inquiry: // fetch UO-31 renal growth for CC1CN(CCO)CC(C)O1 (stereo not given)
Reply text: 90.7

Inquiry: // fetch UO-31 renal growth for CC(C)C(=O)OCCOc1ccc(C(C)(C)C)cc1
Reply text: 89.6

====

# key: entry, value: growth
- Test system: NCI-H322M lung
- Assay info: NCI-60 one-dose screen, 48 h (100 = growth as untreated, 0 = no growth, -100 = all killed)
- Assay conditions: 10 µM unless noted
This is part of a sample that, as a whole, favours compounds with a hit. Of some 83,000 tested, about 20% had one in any assay.
Number only, in %; omit the unit.

Example results:
| Compound | Study system | Endpoint | Measured result |
| --- | --- | --- | --- |
| CC(=O)c1cc(O)ccc1O | NCI-H322M lung | growth | 97.4 |
| O=C(Oc1ccccc1Cl)c1ccc(Cl)cc1Cl | NCI-H322M lung | growth | 107 |
| CCOC(=O)c1ccc(NC(C)=O)o1 | NCI-H322M lung | growth | 108 |
| CNc1ccccc1C(N)=O | NCI-H322M lung | growth | 97.3 |
| Cc1ccc([N+](=O)[O-])c(C)n1 | NCI-H322M lung | growth | 101 |

Inquiry: Could you tell me which growth is on file for O=C(O)CC1=CCCCC1 ?
Reply text: 98.7

Inquiry: Could you tell me which growth is on file for N=C(N)c1nn(C2OC(CO)C(O)C2O)c2nc[nH]c(=O)c12 (centres undefined) ?
Reply text: 6.64

Inquiry: Could you tell me which growth is on file for Clc1ccc(C(SCc2ccccc2)SCc2ccccc2)cc1 ?
Reply text: 111

Inquiry: Could you tell me which growth is on file for Cc1ccc(C)c(CN(C)C)c1O ?
Reply text: 108

Inquiry: Could you tell me which growth is on file for CC(C)(N)CO[C@H]1C[C@H]2CC[C@@]1(C)C2(C)C ?
Reply text: 96.5
